Catalogue of Antibody dissociation rate (%) at pH 3.0 readings, one per entry.
# measured_on: human IgG (IgG Sepharose 6 Fast Flow, GE Healthcare Biosciences Corp.) (human)
# assay_method_text: IgG Sepharose 6 Fast Flow column; bound at neutral pH, eluted at pH 3.0 then pH 2.5; peak area A/(A+B)

>  <binder>
Recombinant immunoglobulin κ light chain binding protein KBP14 (designed binder) KETPETPEEPKEEVTIKVNLIFADGRTQTATHKGRFEEATAKAYRYADLLAKVQGEYTADLEDGGYTINIKFAGKKETPETPEEPKEEVTIKVNLIFADGRTQTATHKGRFEEATAKAYRYADLLAKVQGEYTADLEDGGYTINIKFAGKKETPETPEEPKEEVTIKVNLIFADGRTQTATHKGRFEEATAKAYRYADLLAKVQGEYTADLEDGGYTINIKFAGKKETPETPEEPKEEVTIKVNLIFADGRTQTATHKGRFEEATAKAYRYADLLAKVQGEYTADLEDGGYTINIKFAGK

>  <Antibody dissociation rate (%) at pH 3.0>
100

$$$$
>  <binder>
Recombinant immunoglobulin κ light chain binding protein KBP8 (designed binder) KETPETPEEPKEEVTIKVNLIFADGKTQTATFKGTFEKATAEAYRYADLLAKVNGEYTADLEDGGYTINIKFAGKKETPETPEEPKEEVTIKVNLIFADGKTQTATFKGTFEKATAEAYRYADLLAKVNGEYTADLEDGGYTINIKFAGKKETPETPEEPKEEVTIKVNLIFADGKTQTATFKGTFEKATAEAYRYADLLAKVNGEYTADLEDGGYTINIKFAGKKETPETPEEPKEEVTIKVNLIFADGKTQTATFKGTFEKATAEAYRYADLLAKVNGEYTADLEDGGYTINIKFAGK

>  <Antibody dissociation rate (%) at pH 3.0>
80

$$$$
>  <binder>
Recombinant immunoglobulin κ light chain binding protein KBP13 (designed binder) KETPETPEEPKEEVTIKVNLIFADGRTQTATFKGRFEEATAKAYRYADLLAKVQGEHTADLEDGGYTINIKFAGKKETPETPEEPKEEVTIKVNLIFADGRTQTATFKGRFEEATAKAYRYADLLAKVQGEHTADLEDGGYTINIKFAGKKETPETPEEPKEEVTIKVNLIFADGRTQTATFKGRFEEATAKAYRYADLLAKVQGEHTADLEDGGYTINIKFAGKKETPETPEEPKEEVTIKVNLIFADGRTQTATFKGRFEEATAKAYRYADLLAKVQGEHTADLEDGGYTINIKFAGK

>  <Antibody dissociation rate (%) at pH 3.0>
100

$$$$
>  <binder>
Recombinant immunoglobulin κ light chain binding protein KBP5 (designed binder) KETPETPEEPKEEVTIKVNLIFADGKTQTHTFKGTFEEATAEAYRYADLLAKVNGEYTADLEDGGYTINIKFAGKKETPETPEEPKEEVTIKVNLIFADGKTQTHTFKGTFEEATAEAYRYADLLAKVNGEYTADLEDGGYTINIKFAGKKETPETPEEPKEEVTIKVNLIFADGKTQTHTFKGTFEEATAEAYRYADLLAKVNGEYTADLEDGGYTINIKFAGKKETPETPEEPKEEVTIKVNLIFADGKTQTHTFKGTFEEATAEAYRYADLLAKVNGEYTADLEDGGYTINIKFAGK

>  <Antibody dissociation rate (%) at pH 3.0>
92

$$$$
>  <binder>
Recombinant immunoglobulin κ light chain binding protein KBP7 (designed binder) KETPETPEEPKEEVTIKVNLIFADGKTQTATFKHTFEEATAEAYRYADLLAKVNGEYTADLEDGGYTINIKFAGKKETPETPEEPKEEVTIKVNLIFADGKTQTATFKHTFEEATAEAYRYADLLAKVNGEYTADLEDGGYTINIKFAGKKETPETPEEPKEEVTIKVNLIFADGKTQTATFKHTFEEATAEAYRYADLLAKVNGEYTADLEDGGYTINIKFAGKKETPETPEEPKEEVTIKVNLIFADGKTQTATFKHTFEEATAEAYRYADLLAKVNGEYTADLEDGGYTINIKFAGK

>  <Antibody dissociation rate (%) at pH 3.0>
97

$$$$
>  <binder>
Recombinant immunoglobulin κ light chain binding protein KBP2 (designed binder) KETPETPEEPKEEVTIKHNLIFADGKTQTATFKGTFEEATAEAYRYADLLAKVNGEYTADLEDGGYTINIKFAGKKETPETPEEPKEEVTIKHNLIFADGKTQTATFKGTFEEATAEAYRYADLLAKVNGEYTADLEDGGYTINIKFAGKKETPETPEEPKEEVTIKHNLIFADGKTQTATFKGTFEEATAEAYRYADLLAKVNGEYTADLEDGGYTINIKFAGKKETPETPEEPKEEVTIKHNLIFADGKTQTATFKGTFEEATAEAYRYADLLAKVNGEYTADLEDGGYTINIKFAGK

>  <Antibody dissociation rate (%) at pH 3.0>
98

$$$$
>  <binder>
Recombinant type immunoglobulin κ light chain binding protein KBP0 (designed binder) KETPETPEEPKEEVTIKVNLIFADGKTQTATFKGTFEEATAEAYRYADLLAKVNGEYTADLEDGGYTINIKFAGKKETPETPEEPKEEVTIKVNLIFADGKTQTATFKGTFEEATAEAYRYADLLAKVNGEYTADLEDGGYTINIKFAGKKETPETPEEPKEEVTIKVNLIFADGKTQTATFKGTFEEATAEAYRYADLLAKVNGEYTADLEDGGYTINIKFAGKKETPETPEEPKEEVTIKVNLIFADGKTQTATFKGTFEEATAEAYRYADLLAKVNGEYTADLEDGGYTINIKFAGK

>  <Antibody dissociation rate (%) at pH 3.0>
50

$$$$

The reported measurements were obtained from patent US20200262873A1.
